# maps each entry to its IC50
system: PAM 212 keratinocytes; test: PAM 212 keratinocyte growth inhibition (photo-toxicity with UVA / dark-toxicity without light); type: cell-based
# output: bare number, implied unit µM

Reference set, count: 5
| compound | measured-value |
| --- | --- |
| CC(=O)[O][Hg][CH2]C1Cc2cc3c(C)c(C#N)c(=O)oc3c(C)c2O1 (centres unmarked) | 30 |
| CC(=O)[O][Hg][CH2]C1Cc2cc3c(C)cc(=O)oc3c(C)c2O1 (centres unmarked) | 6.2 |
| CC(=O)[O][Hg][CH2]C1Cc2ccccc2O1 (centres unmarked) | 11 |
| Cc1cc(=O)oc2c(C)c3c(cc12)CC([CH2][Hg][I])O3 (centres unmarked) | 4.2 |
| CC(=O)[O][Hg][CH2]C1Cc2cc3c(C)c(F)c(=O)oc3c(C)c2O1 (centres unmarked) | 14 |

What the record says about [I][Hg][CH2]C1Cc2ccccc2O1 (centres unmarked) : IC50 is 12

What the record says about [Cl][Hg][CH2]C1Cc2ccccc2O1 (centres unmarked) : IC50 is 13

What the record says about Cc1cc(=O)oc2c(C)c3c(cc12)CC([CH2][Hg][Cl])O3 (centres unmarked) : IC50 is 15
